This collection of values is drawn from patent US11578055B2.

- Protocol: In Vitro Microsome Stability Assay (mouse)
- Assay type: in vitro ADME
- Experimental parameters: mouse, 30 min, NADPH
Structures can show the parent of a compound that is named as a salt.
Liver Microsome Stability-% Left after 30 min w/ NADPH (%) Mouse strictly less than 30% = yes (1). Otherwise no (0).

>>> discrete_label("Cc1ccc(N2CCN(S(=O)(=O)N3CCCN(CC4CCCCC4)CCCN(S(=O)(=O)c4ccc(N(C)C)cc4)C[C@H](C)C3)CC2)cc1 [A99]")
"no (0)"
>>> discrete_label("C=C1CN(S(=O)(=O)c2ccc(C)cc2)CCCN(C(=O)OCCC)CCCN(S(=O)(=O)c2ccc(N(C)C)cc2)C1 [A12]")
"yes (1)"
>>> discrete_label("C[C@H]1CN(S(=O)(=O)c2ccc(N(C)C)cc2)CCCN(CC2CCCCC2)CCCN(S(=O)(=O)N2CC[C@@H](c3ccccc3)C2)C1 [A90]")
"yes (1)"
>>> discrete_label("C=C1CN(S(=O)(=O)c2ccc(N(C)C)cc2)CCCN(CC2CCCCC2)CCCN(S(=O)(=O)N2CCc3cccc(Cl)c3C2)C1 [A51]")
"yes (1)"
>>> discrete_label("C=C1CN(S(=O)(=O)c2ccc(N(C)C)cc2)CCCN(CC2CCCCC2)CCCN(S(=O)(=O)N2CCC(Oc3ccccc3)CC2)C1 [A37]")
"yes (1)"

In plain terms, does C=C1CN(S(=O)(=O)c2ccc(N(C)C)cc2)CCCN(CC2CCCCC2)CCCN(S(=O)(=O)N2CCN(c3ccccc3)[C@@H](C)C2)C1 [A47] come in under 30% for Liver Microsome Stability-% Left after 30 min w/ NADPH (%) Mouse? yes (1)

In plain terms, does C=C1CN(S(=O)(=O)c2ccc(N(C)C)cc2)CCCN(CC2CCCCC2)CCCN(S(=O)(=O)N2CCC(c3ccccc3)CC2)C1 [A35, hydrochloride] come in under 30% for Liver Microsome Stability-% Left after 30 min w/ NADPH (%) Mouse? yes (1)

* * *

- Protocol: In Vitro Microsome Stability Assay (rat)
- Type: in vitro ADME
- Experimental parameters: rat, 30 min, NADPH
Give Liver Microsome Stability-% Left after 30 min w/ NADPH (%) Rat for every item shown.
Answers are plain numbers, in %.

>>> measured_result("C=C1CN(S(=O)(=O)c2ccc(C)cc2)CCCN(CC2CCOCC2)CCCN(S(=O)(=O)c2ccc(N(C)C)cc2)C1 [A9]")
0.14
>>> measured_result("CC1CCCCN1S(=O)(=O)N1CCCN(CC2CCCCC2)CCCN(S(=O)(=O)c2ccc(N(C)C)cc2)CC2(CC2)C1 (stereo not drawn) [A20]")
0.19
>>> measured_result("Cc1cccc(N2CCN(S(=O)(=O)N3CCCN(CC4CCCCC4)CCCN(S(=O)(=O)c4ccc(N(C)C)cc4)C[C@H](C)C3)CC2)c1 [A98]")
32.8

Below is a list of molecules. For each, state its recorded Liver Microsome Stability-% Left after 30 min w/ NADPH (%) Rat.
1. C=C1CN(S(=O)(=O)c2ccc(N(C)C)cc2)CCCN(CC2CCCCC2)CCCN(S(=O)(=O)N2CCC[C@@H](c3ccccc3)C2)C1 [A43]
2. C=C1CN(S(=O)(=O)c2ccc(N(C)C)cc2)CCCN(CC2CCCCC2)CCCN(S(=O)(=O)N2CC=C(C3=CCCC3)CC2)C1 [A67]
3. CC1CCN(S(=O)(=O)N2CCCN(CC3CCCCC3)CCCN(S(=O)(=O)c3ccc(N(C)C)cc3)CC3(CC3)C2)CC1 [A22]
4. COC1CN(S(=O)(=O)c2ccc(N(C)C)cc2)CCCN(CC2CCCCC2)CCCN(S(=O)(=O)N2CCC(c3ccccc3)CC2)C1 (stereo not drawn) [A61]
5. C=C1CN(S(=O)(=O)c2ccc(N(C)C)cc2)CCCN(CC2CCCCC2)CCCN(S(=O)(=O)N2CCN(c3ccccc3)CC2)C1 [A36]
6. C=C1CN(S(=O)(=O)c2ccc(N(C)C)cc2)CCCN(CC2CCCCC2)CCCN(S(=O)(=O)N2CC=C(c3ccccc3Cl)CC2)C1 [A73]

22.3
45.4
0.4
19.6
0.94
71.5

Below is a list of molecules. For each, state its recorded Liver Microsome Stability-% Left after 30 min w/ NADPH (%) Rat.
1. C[C@H]1CN(S(=O)(=O)c2ccc(N(C)C)cc2)CCCN(CC2CCCCC2)CCCN(S(=O)(=O)N2CCC(Oc3ccccc3)CC2)C1 [A92]
2. C=C1CN(S(=O)(=O)c2ccc(N(C)C)cc2)CCCN(CC2CCCCC2)CCCN(S(=O)(=O)N2CCC(n3cccn3)CC2)C1 [A79]
3. COc1ccc(S(=O)(=O)N2CCCN(CC3CCCCC3)CCCN(S(=O)(=O)N3CCCCC3)CC3(CC3)C2)cc1 [A31]
4. C=C1CN(S(=O)(=O)c2ccc(N(C)C)cc2)CCCN(CC2CCCCC2)CCCN(S(=O)(=O)N2CCN(c3ccc(Cl)cc3)CC2)C1 [A85]

51.8
0.1
0.09
64.9

Below is a list of molecules. For each, state its recorded Liver Microsome Stability-% Left after 30 min w/ NADPH (%) Rat.
1. C=C1CN(S(=O)(=O)c2ccc(N(C)C)cc2)CCCN(CC2CCCCC2)CCCN(S(=O)(=O)N2CCC(C3CCCC3)CC2)C1 [A64]
2. C=C1CN(S(=O)(=O)c2ccc(N(C)C)cc2)CCCN(CC2CCCCC2)CCCN(S(=O)(=O)N2CCN(c3ccccc3)[C@H](C)C2)C1 [A46]
3. C=C1CN(S(=O)(=O)c2ccc(N(C)C)cc2)CCCN(CC2CCCCC2)CCCN(S(=O)(=O)N2CCc3cc(Br)ccc3C2)C1 [A60]
4. C=C1CN(S(=O)(=O)c2ccc(N(C)C)cc2)CCCN(CC2CCCCC2)CCCN(S(=O)(=O)N2CCc3nc(Cl)ccc3C2)C1 [A82]
5. C=C1CN(S(=O)(=O)c2ccc(N(C)C)cc2)CCCN(CC2CCCCC2)CCCN(S(=O)(=O)N2CCC(c3nc4ccccc4o3)CC2)C1 [A80]
6. C=C1CN(S(=O)(=O)c2ccc(N(C)C)cc2)CCCN(CC2CCCCC2)CCCN(S(=O)(=O)N2CC=C(c3ccc(Cl)cc3)CC2)C1 [A74]
7. C[C@@H]1CN(S(=O)(=O)c2ccc(N(C)C)cc2)CCCN(CC2CCCCC2)CCCN(S(=O)(=O)N2CCC(c3ccccc3)CC2)C1 [A76]
8. CO/N=C1/CN(S(=O)(=O)c2ccc(N(C)C)cc2)CCCN(CC2CCCCC2)CCCN(S(=O)(=O)N2CCC(c3ccccc3)CC2)C1 [A88]

1: 63.1; 2: 4.46; 3: 50.3; 4: 0.16; 5: 14.1; 6: 55.7; 7: 33.9; 8: 15.2

Below is a list of molecules. For each, state its recorded Liver Microsome Stability-% Left after 30 min w/ NADPH (%) Rat.
1. CN(C)c1ccc(S(=O)(=O)N2CCCN(CC3CCCCC3)CCCN(S(=O)(=O)N3CCC(c4ccccc4)CC3)CCC2)cc1 [A42]
2. C=C1CN(S(=O)(=O)c2ccc(N(C)C)cc2)CCCN(CC2CCCCC2)CCCN(S(=O)(=O)N2CCc3cc(-c4ccccc4)ccc3C2)C1 [A63]
3. C=C1CN(S(=O)(=O)c2ccc(C)cc2)CCCN(CC2CCCCC2)CCCN(S(=O)(=O)C2CCCCC2)C1 [A8]
4. C=C1CN(S(=O)(=O)c2ccc(N(C)C)cc2)CCCN(CC2CCCCC2)CCCN(S(=O)(=O)N2CC=C(C3=CCCCC3)CC2)C1 [A68]
5. COc1cccc(S(=O)(=O)N2CCCN(CC3CCCCC3)CCCN(S(=O)(=O)N3CCCCC3)CC3(CC3)C2)c1 [A32]
6. C=C1CN(S(=O)(=O)c2ccc(N(C)C)cc2)CCCN(CC2CCCCC2)CCCN(S(=O)(=O)N2CCC(C3CCOCC3)CC2)C1 [A78]

[7.69, 88.2, 0.61, 57.1, 0.27, 0.25]
